Origin of values: patent US6552078B2

test: Chemical Hydrolysis; assay type: physicochemical; settings: pH 7.4
REPORTED ENDPOINT: half-life (h)
Return type: number; implicit unit h.

Param item = COc1ccc2cc(CC(=O)OCC(C)=O)ccc2c1 ; retrieve measured half-life.
22
